System: U87MG cells
Experiment: Calcium imaging (Ca2+ imaging): change in the calcium level of the cells, Fura-2 340/380 ratio
Assay type: cell-based
Conditions: 100 μM in HEPES buffer, average 340/380 ratio reactivity for 200 seconds relative to TFP (trifluoperazine) as 100%
# Reactivity (%) listing for each entry below
Express your answer in %, writing the number without its unit.

1. FC(F)(F)c1ccc2c(c1)N(CCCCN1CCC(N3CCCCC3)CC1)c1ccccc1S2    123
2. FC(F)(F)c1ccc2c(c1)N(CCCCN1CCC(N3CCOCC3)CC1)c1ccccc1S2    120
3. CSc1ccc2c(c1)N(CCCN1CCC(N3CCCC3)CC1)c1ccccc1S2    114
4. CC1CCN(CCCCN2c3ccccc3Sc3ccc(F)cc32)CC1    110
5. CN1CCN(CCCN2c3ccccc3Sc3ccc(C(F)(F)F)cc32)CC1    100
6. Fc1ccc2c(c1)N(CCCCN1CCC(N3CCCC3)CC1)c1ccccc1S2    149
7. FC(F)(F)c1ccc2c(c1)N(CCCCN1CCC(N3CCCC3)CC1)c1ccccc1S2    134
8. CSc1ccc2c(c1)N(CCCCN1CCC(N3CCCCC3)CC1)c1ccccc1S2    131
9. CSc1ccc2c(c1)N(CCCCN1CCC(N3CCCC3)CC1)c1ccccc1S2    150

INPUT: Form entry - test system: U87MG cells; read-out: Reactivity (%); compound: Clc1ccc2c(c1)N(CCCN1CCC(N3CCCCC3)CC1)c1ccccc1S2
OUTPUT: 124
